# ASSAYED_SYSTEM: HiBit-WIZ fusion protein (Homo sapiens, UniProt O95785+Q96SW2)
# Sequence (O95785 whole entry, the tested form may be a part): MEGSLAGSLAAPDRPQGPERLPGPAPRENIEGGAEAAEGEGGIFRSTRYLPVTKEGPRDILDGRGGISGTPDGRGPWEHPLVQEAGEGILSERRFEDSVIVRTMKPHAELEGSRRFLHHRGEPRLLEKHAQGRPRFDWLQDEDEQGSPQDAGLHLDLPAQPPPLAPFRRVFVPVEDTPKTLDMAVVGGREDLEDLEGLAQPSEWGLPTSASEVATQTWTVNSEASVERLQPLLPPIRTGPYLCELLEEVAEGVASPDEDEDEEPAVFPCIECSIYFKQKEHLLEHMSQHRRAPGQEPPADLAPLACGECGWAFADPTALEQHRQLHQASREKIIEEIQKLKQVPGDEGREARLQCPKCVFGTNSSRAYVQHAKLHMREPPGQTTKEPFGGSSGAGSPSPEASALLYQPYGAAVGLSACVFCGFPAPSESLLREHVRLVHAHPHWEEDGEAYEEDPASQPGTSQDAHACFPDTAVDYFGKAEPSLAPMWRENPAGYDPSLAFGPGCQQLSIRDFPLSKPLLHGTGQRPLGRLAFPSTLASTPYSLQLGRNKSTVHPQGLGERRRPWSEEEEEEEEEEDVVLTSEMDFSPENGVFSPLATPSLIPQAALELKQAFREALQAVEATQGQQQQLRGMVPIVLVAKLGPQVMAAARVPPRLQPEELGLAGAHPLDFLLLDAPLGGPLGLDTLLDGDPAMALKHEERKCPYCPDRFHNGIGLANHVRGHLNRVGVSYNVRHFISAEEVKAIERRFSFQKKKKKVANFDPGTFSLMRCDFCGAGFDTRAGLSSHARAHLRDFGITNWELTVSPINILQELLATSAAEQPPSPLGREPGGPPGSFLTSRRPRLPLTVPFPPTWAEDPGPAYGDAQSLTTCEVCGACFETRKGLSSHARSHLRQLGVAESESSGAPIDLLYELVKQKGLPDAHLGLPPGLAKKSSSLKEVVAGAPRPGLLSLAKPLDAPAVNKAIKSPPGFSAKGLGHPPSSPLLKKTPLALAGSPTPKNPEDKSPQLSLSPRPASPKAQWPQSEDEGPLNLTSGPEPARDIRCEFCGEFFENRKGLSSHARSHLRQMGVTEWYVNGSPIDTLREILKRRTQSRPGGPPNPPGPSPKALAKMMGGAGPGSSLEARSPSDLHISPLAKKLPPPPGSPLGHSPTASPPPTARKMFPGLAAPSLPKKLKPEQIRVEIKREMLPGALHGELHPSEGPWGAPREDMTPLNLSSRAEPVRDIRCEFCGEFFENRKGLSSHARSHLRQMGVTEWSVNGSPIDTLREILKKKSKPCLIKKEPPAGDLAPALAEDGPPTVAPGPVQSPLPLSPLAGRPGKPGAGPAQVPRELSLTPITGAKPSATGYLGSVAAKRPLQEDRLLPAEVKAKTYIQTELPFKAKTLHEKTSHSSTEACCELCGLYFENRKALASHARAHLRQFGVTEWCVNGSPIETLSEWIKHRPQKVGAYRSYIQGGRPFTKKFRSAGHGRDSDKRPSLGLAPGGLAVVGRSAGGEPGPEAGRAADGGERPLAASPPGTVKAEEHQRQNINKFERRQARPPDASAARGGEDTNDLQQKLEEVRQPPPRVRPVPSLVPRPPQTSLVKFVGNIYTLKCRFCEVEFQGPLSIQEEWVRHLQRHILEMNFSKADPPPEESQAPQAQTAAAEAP
# Sequence (Q96SW2 whole entry, the tested form may be a part): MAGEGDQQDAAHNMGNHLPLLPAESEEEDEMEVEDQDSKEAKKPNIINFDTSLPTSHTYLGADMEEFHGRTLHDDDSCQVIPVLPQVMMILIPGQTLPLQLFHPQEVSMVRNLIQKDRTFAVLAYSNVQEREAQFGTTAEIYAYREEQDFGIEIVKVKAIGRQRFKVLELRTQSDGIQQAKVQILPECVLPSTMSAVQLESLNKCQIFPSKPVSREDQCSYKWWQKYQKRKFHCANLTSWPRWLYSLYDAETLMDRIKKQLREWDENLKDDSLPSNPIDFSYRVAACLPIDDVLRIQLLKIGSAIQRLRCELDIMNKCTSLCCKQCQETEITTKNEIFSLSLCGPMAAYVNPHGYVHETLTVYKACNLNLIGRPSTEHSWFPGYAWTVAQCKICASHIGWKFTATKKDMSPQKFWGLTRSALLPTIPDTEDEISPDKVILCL
# Sequence (Q16531 whole entry partner, the tested form may be a part): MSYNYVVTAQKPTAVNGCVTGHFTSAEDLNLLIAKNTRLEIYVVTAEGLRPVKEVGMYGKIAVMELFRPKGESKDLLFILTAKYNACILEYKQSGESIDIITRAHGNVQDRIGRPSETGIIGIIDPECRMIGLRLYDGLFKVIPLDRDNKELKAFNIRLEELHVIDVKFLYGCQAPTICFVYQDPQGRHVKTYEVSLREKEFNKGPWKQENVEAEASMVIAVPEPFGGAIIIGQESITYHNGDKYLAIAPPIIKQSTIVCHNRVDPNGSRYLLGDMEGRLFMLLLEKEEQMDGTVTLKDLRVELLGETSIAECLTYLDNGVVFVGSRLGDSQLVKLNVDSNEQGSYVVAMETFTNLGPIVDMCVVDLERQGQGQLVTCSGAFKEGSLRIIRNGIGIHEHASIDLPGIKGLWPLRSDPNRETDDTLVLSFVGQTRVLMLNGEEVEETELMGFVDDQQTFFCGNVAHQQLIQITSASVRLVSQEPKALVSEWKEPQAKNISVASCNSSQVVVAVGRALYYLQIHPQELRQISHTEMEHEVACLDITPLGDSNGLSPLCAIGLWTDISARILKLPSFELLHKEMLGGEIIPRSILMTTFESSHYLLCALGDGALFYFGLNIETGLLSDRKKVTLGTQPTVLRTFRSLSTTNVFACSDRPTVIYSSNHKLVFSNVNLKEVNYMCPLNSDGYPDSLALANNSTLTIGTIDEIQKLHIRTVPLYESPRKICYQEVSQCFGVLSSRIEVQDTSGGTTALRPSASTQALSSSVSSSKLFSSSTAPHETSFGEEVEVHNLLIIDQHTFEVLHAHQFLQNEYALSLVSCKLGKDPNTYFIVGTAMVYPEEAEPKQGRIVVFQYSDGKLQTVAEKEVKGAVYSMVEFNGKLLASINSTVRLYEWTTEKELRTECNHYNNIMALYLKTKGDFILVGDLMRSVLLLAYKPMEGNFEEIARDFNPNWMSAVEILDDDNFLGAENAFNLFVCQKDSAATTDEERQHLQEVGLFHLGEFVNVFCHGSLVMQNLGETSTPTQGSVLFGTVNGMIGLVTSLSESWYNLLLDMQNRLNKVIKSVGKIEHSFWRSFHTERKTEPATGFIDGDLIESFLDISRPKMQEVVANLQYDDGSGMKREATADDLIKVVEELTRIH
# RUN_DESCRIPTION: Quantification of WIZ protein levels in HiBit tag fusion protein assay (WIZ HiBit assay in 293T cells)
# Assay type: cell-based
# APPLIED_CONDITIONS: WIZ HiBit assay in 293T cells; 10-point, 5-fold dose response, highest concentration 25 μM, about 18 hours; read-out: WIZ AC50
ASSAY_READOUT: DC50 (nM)
Express your answer in nM, writing the number without its unit.

# MOLECULE, MEASURED
rows = [
    ("Cc1nc(-c2cccc(CN3CCCC[C@H]3COc3ccc4c(c3)CN(C3CCC(=O)NC3=O)C4=O)c2)no1 (stereo partly shown) [Compound I-50bb]", 18300),
    ("Cc1nn(-c2ccccc2)c(C)c1C(=O)N1CCCC[C@H]1COc1ccc2c(c1)CN(C1CCC(=O)NC1=O)C2=O (stereo partly shown) [Compound I-72gs]", 7390),
    ("CC(C)Cn1cc(CN2CCCC[C@@H]2COc2ccc3c(c2)CN(C2CCC(=O)NC2=O)C3=O)cn1 (stereo partly shown) [Compound I-50dw]", 8),
    ("O=C1CCC(N2Cc3cc(OC[C@H]4CCCCN4Cc4ccnc(N5CCOCC5)c4)ccc3C2=O)C(=O)N1 (stereo partly shown) [Compound I-50dr]", 97),
    ("CC(C)c1cc(C(=O)N2CCCC[C@H]2COc2ccc3c(c2)CN(C2CCC(=O)NC2=O)C3=O)n(C)n1 (stereo partly shown) [Compound I-72gd]", 919),
]

Tell me DC50 of O=C1CCC(N2Cc3cc(OC[C@H]4CCCCN4Cc4cccc(Cn5ccnc5)c4)ccc3C2=O)C(=O)N1 (stereo partly shown) [Compound I-50eh] when tested on HiBit-WIZ fusion protein (Homo sapiens, UniProt O95785+Q96SW2).
13

Tell me DC50 of O=C1CCC(N2Cc3cc(OC[C@H]4CCCCN4Cc4cccc(Cn5cccn5)c4)ccc3C2=O)C(=O)N1 (stereo partly shown) [Compound I-50en] when tested on HiBit-WIZ fusion protein (Homo sapiens, UniProt O95785+Q96SW2).
4

Tell me DC50 of O=C1CCC(N2Cc3cc(OC[C@H]4CCCCN4CC4COC4)ccc3C2=O)C(=O)N1 (stereo partly shown) [Compound I-202] when tested on HiBit-WIZ fusion protein (Homo sapiens, UniProt O95785+Q96SW2).
83

Tell me DC50 of O=C1CCC(N2Cc3cc(OC[C@H]4CCCCN4Cc4ccccc4N4CCNCC4)ccc3C2=O)C(=O)N1 (stereo partly shown) [Compound I-106] when tested on HiBit-WIZ fusion protein (Homo sapiens, UniProt O95785+Q96SW2).
2560

Tell me DC50 of CCN1CCN(c2ccc(CN3CCCC[C@@H]3COc3ccc4c(c3)CN(C3CCC(=O)NC3=O)C4=O)cn2)CC1 (stereo partly shown) [Compound I-191] when tested on HiBit-WIZ fusion protein (Homo sapiens, UniProt O95785+Q96SW2).
150

Tell me DC50 of CCOC(=O)c1n[nH]cc1CN1CCCC[C@@H]1COc1ccc2c(c1)CN(C1CCC(=O)NC1=O)C2=O (stereo partly shown) [Compound I-50ch] when tested on HiBit-WIZ fusion protein (Homo sapiens, UniProt O95785+Q96SW2).
9240

Tell me DC50 of O=C1CCC(N2Cc3cc(OC[C@H]4CCCCN4Cc4ccc5ocnc5c4)ccc3C2=O)C(=O)N1 (stereo partly shown) [Compound I-201] when tested on HiBit-WIZ fusion protein (Homo sapiens, UniProt O95785+Q96SW2).
19

Tell me DC50 of O=C1CCC(N2Cc3cc(OC[C@H]4CCCCN4Cc4cccc5c4NCCO5)ccc3C2=O)C(=O)N1 (stereo partly shown) [Compound I-178] when tested on HiBit-WIZ fusion protein (Homo sapiens, UniProt O95785+Q96SW2).
20

Tell me DC50 of CCN1CCC(F)(F)CC1COc1ccc2c(c1)CN(C1CCC(=O)NC1=O)C2=O (single isomer, unassigned) [I-252 (Isomer 2)] when tested on HiBit-WIZ fusion protein (Homo sapiens, UniProt O95785+Q96SW2).
11

Tell me DC50 of CCN1C2CCC(C2)C1COc1ccc2c(c1)CN(C1CCC(=O)NC1=O)C2=O (single isomer, unassigned) [I-255 (Isomer 2)] when tested on HiBit-WIZ fusion protein (Homo sapiens, UniProt O95785+Q96SW2).
98

Tell me DC50 of O=C1CCC(N2Cc3cc(OC[C@@H]4CCCCN4Cc4cn[nH]c4)ccc3C2=O)C(=O)N1 (stereo partly shown) [Compound I-50cc] when tested on HiBit-WIZ fusion protein (Homo sapiens, UniProt O95785+Q96SW2).
5970
